# Assay System: T1, MHC class I allele A*0101 (bound via biotin to streptavidin-coated plate)
# T1 construct: iTopia MHC class I monomer on the plate; placeholder peptide and b2M removed, then reconstituted with test peptide and fresh b2M; also called A1; HLA A1
# Experimental Details: iTopia peptide binding assay
Readout Type: % of positive control peptide binding (%)
Provide only the numeric value, understood in %.

>>> experimental_value("QPPLPDQCP (also called Peptide No 28) [5T4 9 mer peptide 28 QPPLPDQCP]")
6
>>> experimental_value("AFSGSNASV (also called Peptide No 81) [5T4 9 mer peptide 81 AFSGSNASV]")
2
>>> experimental_value("RRLELASNH [5T4 9 mer peptide 107 RRLELASNH]")
0
>>> experimental_value("TDLPAYVRN (also called Peptide No 44) [5T4 9 mer peptide 44 TDLPAYVRN]")
7

Q: Please give the measured % of positive control peptide binding for this binder: SAQPPLPDQ (also called Peptide No 27) [5T4 9 mer peptide 27 SAQPPLPDQ]
A: 2

Q: Reported % of positive control peptide binding, binder APFLASAVS (also called Peptide No 23) [5T4 9 mer peptide 23 APFLASAVS] : ____
A: 1

Q: Need % of positive control peptide binding, item LDLSNNSLV (also called Peptide No 120) [5T4 9 mer peptide 120 LDLSNNSLV]
A: 7
